src = paper PMC10397247

Molecular target: T1, 4H780-AA
T1 chain: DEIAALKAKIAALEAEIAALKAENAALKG
Test: two-hybrid library CCmax;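 also: natural log of median RNA to DNA barcode read ratio; higher means stronger binding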
Conditions: mean of both orientations
Value Type: interaction score

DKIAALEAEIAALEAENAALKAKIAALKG [4H2078-AA]	-1.14
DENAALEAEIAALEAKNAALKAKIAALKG [4H1086-AA]	-1.37
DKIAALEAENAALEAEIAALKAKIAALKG [4H2190-AA]	-1.55
